OVCAR-8: recorded GI50 for assorted molecules
Numbers only, in nM.

Some solved cases for reference:
| querySmiles | systemTested | valueUnits | measuredResult |
| --- | --- | --- | --- |
| COC(=O)c1c2c(c(C)[n+]([O-])c1C)C(=O)C=C(NCc1ccc(OC)cc1)C2=O | OVCAR-8 | nM | 452 |
| COC(=O)c1c2c(c(C)[n+]([O-])c1C)C(=O)C=C(NCc1ccc(Cl)cc1)C2=O | OVCAR-8 | nM | 292 |
| COC(=O)c1c2c(c(C)[n+]([O-])c1C)C(=O)C=C(NCc1ccc(F)cc1)C2=O | OVCAR-8 | nM | 406 |
| COC(=O)c1c2c(c(C)[n+]([O-])c1C)C(=O)C=C(NCc1ccc(F)c(F)c1)C2=O | OVCAR-8 | nM | 299 |
| COC(=O)c1c2c(c[n+]([O-])c1C)C(=O)C(NCc1ccccc1)=CC2=O | OVCAR-8 | nM | 320 |
| COC(=O)c1c2c(c(C)[n+]([O-])c1C)C(=O)C(NCc1ccc(F)c(F)c1)=CC2=O | OVCAR-8 | nM | 1960 |
| COC(=O)c1c2c(c(C)[n+]([O-])c1C)C(=O)C=C(NCc1ccc(Br)cc1)C2=O | OVCAR-8 | nM | 465 |
| COC(=O)c1c2c(c(C)[n+]([O-])c1C)C(=O)C(NCc1ccc(O)cc1)=CC2=O | OVCAR-8 | nM | 1080 |
| COC(=O)c1c2c(c[n+]([O-])c1C)C(=O)C=CC2=O | OVCAR-8 | nM | 2930 |
| COC(=O)c1c2c(c(C)[n+]([O-])c1C)C(=O)C(NCc1cccc(OC)c1)=CC2=O | OVCAR-8 | nM | 2520 |

Parameter requested: GI50. Apply to each item below.
1. COC(=O)c1c2c(c(C)[n+]([O-])c1C)C(=O)C(NCc1ccc(Br)cc1)=CC2=O
2. COC(=O)c1c2c(c[n+]([O-])c1C)C(=O)C=C(NCc1ccccc1)C2=O
3. COC(=O)c1c2c(c(C)[n+]([O-])c1C)C(=O)C(NCc1ccc(F)cc1)=CC2=O

[A]
1: 1830; 2: 240; 3: 1590

---

Test system: NCI60 tumor cell line panel
Test: NCI60 five-dose screen, mean over panel
Type: cell-based, human
Conditions: five dose; mean over 52 human tumor cell lines common to all analogues; read-out: mean GI50
metricName: GI50

Some solved cases for reference:
| querySmiles | GI50 |
| --- | --- |
| COC(=O)c1c2c(c(C)[n+]([O-])c1C)C(=O)C(NCc1cccc(OC)c1)=CC2=O | 2.29 µM |
| COC(=O)c1c2c(c(C)[n+]([O-])c1C)C(=O)C=C(NCc1ccc(Br)cc1)C2=O | 0.78 µM |
| COC(=O)c1c2c(c(C)[n+]([O-])c1C)C(=O)C(NCc1ccc(OC)cc1)=CC2=O | 2.12 µM |

// switching to the query molecule
The molecule COC(=O)c1c2c(c(C)[n+]([O-])c1C)C(=O)C=C(NCc1ccc(Cl)cc1)C2=O showed GI50 equal to 0.55 µM

---

COLO-205: recorded GI50 for assorted compounds
One number for each entry, in µM.

| compound | valueUnits | GI50 |
| --- | --- | --- |
| COC(=O)c1c2c(c(C)[n+]([O-])c1C)C(=O)C(NCc1ccc(Br)cc1)=CC2=O [Compound 14] | µM | 0.659 |
| COC(=O)c1c2c(c(C)[n+]([O-])c1C)C(=O)C(NCc1ccc(F)c(Cl)c1)=CC2=O [Compound 18] | µM | 0.588 |
| COC(=O)c1c2c(c(C)[n+]([O-])c1C)C(=O)C(NCc1cccc(Cl)c1)=CC2=O [Compound 12] | µM | 0.388 |
| COC(=O)c1c2c(c(C)[n+]([O-])c1C)C(=O)C=C(NCc1ccc(Cl)cc1)C2=O [Compound 11] | µM | 0.238 |
| COC(=O)c1c2c(c(C)[n+]([O-])c1C)C(=O)C(NCc1ccc(O)cc1)=CC2=O [Compound 20] | µM | 0.579 |
| COC(=O)c1c2c(c(C)[n+]([O-])c1C)C(=O)C=C(NCc1ccc(F)c(F)c1)C2=O [Compound 17] | µM | 0.26 |
| COC(=O)c1c2c(c(C)[n+]([O-])c1C)C(=O)C(NCc1cccc(OC)c1)=CC2=O [Compound 8] | µM | 1.1 |
| COC(=O)c1c2c(c(C)[n+]([O-])c1C)C(=O)C(NCc1ccc(F)c(F)c1)=CC2=O [Compound 16] | µM | 0.673 |
| COC(=O)c1c2c(c(C)[n+]([O-])c1C)C(=O)C=C(NCc1ccc(OC)cc1)C2=O [Compound 7] | µM | 0.325 |
| COC(=O)c1c2c(c(C)[n+]([O-])c1C)C(=O)C(NCc1ccc(OC)cc1)=CC2=O [Compound 6] | µM | 0.839 |

// switching to the query compound
The compound COC(=O)c1c2c(c[n+]([O-])c1C)C(=O)C=C(NCc1ccccc1)C2=O [Compound 25] showed GI50 equal to 0.16

---

Tested on: NCI60 tumor cell line panel
Test: NCI60 five-dose screen, mean over panel
Type: cell-based, human
Conditions: Homo sapiens; five dose; across 57-60 cell lines (number given per compound); read-out: Mean of GI50 as Log 10 Concentration (SD) (converted)
metricName: GI50 (nM)
Numbers only, in nM.

Some solved cases for reference:
| querySmiles | measuredResult |
| --- | --- |
| COC(=O)c1c2c(c(C)[n+]([O-])c1C)C(=O)C=C(NCc1ccc(OC)cc1)C2=O | 1530 |
| COC(=O)c1c2c(c(C)[n+]([O-])c1C)C(=O)C(NCc1cccc(OC)c1)=CC2=O | 2210 |
| COC(=O)c1c2c(c[n+]([O-])c1C)C(=O)C(NCc1ccccc1)=CC2=O | 579 |
| COC(=O)c1c2c(c(C)[n+]([O-])c1C)C(=O)C(NCc1ccc(F)cc1)=CC2=O | 1410 |
| COC(=O)c1c2c(c[n+]([O-])c1C)C(=O)C=CC2=O | 2490 |
| COC(=O)c1c2c(c(C)[n+]([O-])c1C)C(=O)C(NCc1ccc(F)c(Cl)c1)=CC2=O | 1800 |
| COC(=O)c1c2c(c(C)[n+]([O-])c1C)C(=O)C(NCc1ccc(F)c(F)c1)=CC2=O | 1780 |

The compound COC(=O)c1c2c(c(C)[n+]([O-])c1C)C(=O)C=C(NCc1ccc(Br)cc1)C2=O showed GI50 equal to 515

---

Tested on: NCI60 tumor cell line panel
Assay: NCI60 five-dose screen, mean over panel
Type: cell-based, human
Conditions: five dose; mean over 52 human tumor cell lines common to all analogues; read-out: mean GI50
Mark TRUE for GI50 under 700 nM, FALSE if at or over.

| querySmiles | assignedLabel |
| --- | --- |
| COC(=O)c1c2c(c[n+]([O-])c1C)C(=O)C=CC2=O | FALSE |

[Q] Please state whether GI50 is below 700 nM for COC(=O)c1c2c(c(C)[n+]([O-])c1C)C(=O)C=C(NCc1ccc(F)c(Cl)c1)C2=O
[A] TRUE

[Q] Please state whether GI50 is below 700 nM for COC(=O)c1c2c(c[n+]([O-])c1C)C(=O)C=C(NCc1ccccc1)C2=O
[A] TRUE

[Q] Please state whether GI50 is below 700 nM for COC(=O)c1c2c(c(C)[n+]([O-])c1C)C(=O)C(NCc1ccc(Br)cc1)=CC2=O
[A] FALSE

[Q] Please state whether GI50 is below 700 nM for COC(=O)c1c2c(c(C)[n+]([O-])c1C)C(=O)C(NCc1ccc(F)cc1)=CC2=O
[A] FALSE

[Q] Please state whether GI50 is below 700 nM for COC(=O)c1c2c(c(C)[n+]([O-])c1C)C(=O)C=C(NCc1cccc(Cl)c1)C2=O
[A] TRUE

[Q] Please state whether GI50 is below 700 nM for COC(=O)c1c2c(c(C)[n+]([O-])c1C)C(=O)C=C(NCc1cccc(OC)c1)C2=O
[A] FALSE

[Q] Please state whether GI50 is below 700 nM for COC(=O)c1c2c(c(C)[n+]([O-])c1C)C(=O)C=C(NCc1ccc(F)c(F)c1)C2=O
[A] TRUE

---

Please go through the items and note down their GI50.
System: NCI60 tumor cell line panel
Experiment: NCI60 five-dose screen, mean over panel
Assay type: cell-based, human
Settings: Homo sapiens; five dose; across 57-60 cell lines (number given per compound); read-out: Mean of GI50 as Log 10 Concentration (SD) (converted)
Give bare numbers, in nM.

Some solved cases for reference:
| querySmiles | valueUnits | GI50 |
| --- | --- | --- |
| COC(=O)c1c2c(c(C)[n+]([O-])c1C)C(=O)C=C(NCc1cccc(OC)c1)C2=O | nM | 607 |
| COC(=O)c1c2c(c[n+]([O-])c1C)C(=O)C=C(NCc1ccccc1)C2=O | nM | 190 |
| COC(=O)c1c2c(c(C)[n+]([O-])c1C)C(=O)C(NCc1ccc(OC)cc1)=CC2=O | nM | 2040 |

Parameter requested: GI50. Apply to each item below.
1. COC(=O)c1c2c(c(C)[n+]([O-])c1C)C(=O)C(NCc1cccc(Cl)c1)=CC2=O
2. COC(=O)c1c2c(c(C)[n+]([O-])c1C)C(=O)C=C(NCc1cccc(Cl)c1)C2=O
3. COC(=O)c1c2c(c(C)[n+]([O-])c1C)C(=O)C=C(NCc1ccc(F)cc1)C2=O
4. COC(=O)c1c2c(c(C)[n+]([O-])c1C)C(=O)C=C(NCc1ccc(F)c(F)c1)C2=O

[A]
1. 1340
2. 405
3. 583
4. 421
